- tgt: Ubiquitin carboxyl-terminal hydrolase 17-like protein 5 (Homo sapiens)
- method: ubiquitin-specific protease 17 DUB inhibitors, concentration-effect assay, cell-free, verification of initial screening actives (AID 1645864)
- measurement.conditions: purified USP17, ubiquitin-rhodamine cleavage fluorescence, 3 h
The source made the active and inactive calls.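 How the source made its calls: active means maximal inhibition of USP17 at or above 30% in the confirmation dose-response, a value not among the printed readouts; inactive means the rest.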
Just give me one of these, please: active, inactive

Reference set, count: 5
NC(=O)CCC(=O)N[C@H]1C[C@H]2CN(Cc3ccccc3)c3ccccc3CN2C1 : inactive
COc1ccc(NC(=O)CN2C(=O)c3ccccc3Sc3ccc(C(=O)N4CCCC4)cc32)c(OC)c1 : active
COC(=O)c1ccccc1NC(=O)CSc1nnc(CNc2ccc(F)cc2)n1CC1CCCO1 (stereo not drawn) : inactive
Cc1cccc(-n2ccnc(SCC(=O)Nc3ccc(Cl)cc3F)c2=O)c1 : active
COc1ccc(CCNC(=O)c2ccc3ccccc3c2)cc1OC : inactive

Kindly provide the recorded test outcome for the following compound: C=C(NC(=O)C(=C)NC(=O)c1csc(C2=N[C@@H]3c4csc(n4)[C@H]4NC(=O)c5csc(n5)[C@H]([C@](C)(O)[C@@H](C)O)NC(=O)[C@H]5CSC(=N5)/C(=C/C)NC(=O)C([C@@H](C)O)NC(=O)c5csc(n5)C3(CC2)NC(=O)[C@H](C)NC(=O)C(=C)NC(=O)[C@H](C)NC(=O)C([C@@H](C)CC)N[C@@H]2C=Cc3c(C(C)O)cc(nc3[C@H]2O)C(=O)OC4C)n1)C(N)=O (stereo partly drawn)
inactive

Kindly provide the recorded test outcome for the following compound: CNS(=O)(=O)c1ccc(CNC(=O)c2cc(-c3ccc(C)cc3)no2)cc1
active

Kindly provide the recorded test outcome for the following compound: Cc1cc(O)c(Oc2cc(C)cc(O)c2O)c(O)c1
active

====

- tgt: UniProt:A8MUK1
- method: ubiquitin-specific protease 17 DUB inhibitors, concentration-effect assay, cell-free, verification of initial screening actives (AID 1645864)
- measurement.conditions: purified USP17, ubiquitin-rhodamine cleavage fluorescence, 3 h
The source made the active and inactive calls.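 Rule for the calls: active = maximal inhibition of USP17 at or above 30% in the confirmation dose-response, a value not among the printed readouts; inactive = the rest.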
Just give me one of these, please: label 1 = active, label 0 = inactive

Reference set, count: 5
COc1ccc(C(=O)CSc2nnc(-c3cc4cccc(OC)c4o3)n2C)cc1OC : label 0
COc1ccc(C(=O)C2CC(=O)Nc3c2c(C)nn3-c2ccc(Br)cc2)cc1 (stereo not given) : label 1
O=C(Nc1cc(F)ccc1F)c1ccn(COc2ccc(F)c(Cl)c2)n1 : label 1
CCOC(=O)c1ccc(NC(=O)C[n+]2cc(-c3ccc(Cl)cc3)n3c2CCC3)cc1 : label 0
N#Cc1ccc(Cc2ncc(C(F)(F)F)cc2Cl)s1 : label 0

Kindly provide the recorded test outcome for the following molecule: COc1cc(NC(=O)Cc2ccccc2)ccc1NC(=O)c1cc2ccccc2o1
label 1

Kindly provide the recorded test outcome for the following molecule: Cc1nc2cccnc2n1C1CCN(C(=O)c2cc3cc(Cl)ccc3[nH]2)C1 (stereo not given)
label 0

Kindly provide the recorded test outcome for the following molecule: CC1CCCN(CCCNC(=O)c2ccc(N3CCc4ccccc43)s2)C1 (stereo not given)
label 0

Kindly provide the recorded test outcome for the following molecule: COc1cccc(Cn2nc3n(CC(C)C)c(=O)c4ccc(C(=O)NCC(C)C)cc4n3c2=O)c1
label 1

====

- tgt: Ubiquitin carboxyl-terminal hydrolase 17-like protein 5 (Homo sapiens)
- method: ubiquitin-specific protease 17 DUB inhibitors, concentration-effect assay, cell-free, verification of initial screening actives (AID 1645864)
- measurement.conditions: purified USP17, ubiquitin-rhodamine cleavage fluorescence, 3 h
Calls of active or inactive are those of the source.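 Rule for the calls: active = maximal inhibition of USP17 at or above 30% in the confirmation dose-response, a value not among the printed readouts; inactive = the rest.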
Just give me one of these, please: 1 (yes) = active, 0 (no) = inactive

Reference set, count: 3
CCC(C)NC(=O)Cn1c(=O)n(-c2ccccc2)c(=O)c2ccc(C(=O)NCc3ccco3)cc21 (stereo unspecified) : 1 (yes)
O=C(/C=C/c1c(F)cccc1Cl)N1CCc2ccccc2C1 : 1 (yes)
CCOC(=O)c1ccc(NC(=O)c2cnc(N3CCOCC3)nc2)cc1 : 0 (no)

Kindly provide the recorded test outcome for the following compound: COc1ccccc1NC(=O)Nc1ccc(NC(=O)c2ccccc2O)cc1
1 (yes)

Kindly provide the recorded test outcome for the following compound: COc1ccc(C(C)=O)cc1CC(=O)Nc1nc2ccccc2[nH]1
0 (no)

Kindly provide the recorded test outcome for the following compound: CSc1nc(SCC(N)=O)c2c3c(sc2n1)COC(C)(C)C3
1 (yes)

====

- tgt: Ubiquitin carboxyl-terminal hydrolase 17-like protein 5 (Homo sapiens) (UniProt A8MUK1)
- Sequence (A8MUK1 whole entry, looked up): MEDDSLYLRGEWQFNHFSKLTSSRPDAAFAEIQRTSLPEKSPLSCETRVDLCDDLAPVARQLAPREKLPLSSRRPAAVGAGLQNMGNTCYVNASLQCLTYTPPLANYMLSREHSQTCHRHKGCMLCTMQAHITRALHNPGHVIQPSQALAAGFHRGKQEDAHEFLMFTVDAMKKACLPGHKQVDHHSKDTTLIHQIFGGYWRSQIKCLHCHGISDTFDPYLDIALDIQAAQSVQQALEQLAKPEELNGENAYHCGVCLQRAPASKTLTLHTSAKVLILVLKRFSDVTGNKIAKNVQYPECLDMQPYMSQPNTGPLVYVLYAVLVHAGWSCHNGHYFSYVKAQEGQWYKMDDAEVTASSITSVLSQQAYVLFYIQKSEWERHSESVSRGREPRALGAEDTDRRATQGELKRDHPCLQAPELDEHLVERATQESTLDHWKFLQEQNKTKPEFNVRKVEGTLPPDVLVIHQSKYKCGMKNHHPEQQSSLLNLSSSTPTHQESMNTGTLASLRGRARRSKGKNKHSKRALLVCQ
- method: ubiquitin-specific protease 17 DUB inhibitors, concentration-effect assay, cell-free, verification of initial screening actives (AID 1645864)
- measurement.conditions: purified USP17, ubiquitin-rhodamine cleavage fluorescence, 3 h
Active and inactive are the calls of the source.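 Rule for the calls: active = maximal inhibition of USP17 at or above 30% in the confirmation dose-response, a value not among the printed readouts; inactive = the rest.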
Consider the following compounds and their measured IC50 readings.

Previously resolved entries follow.
Cc1cc(C(=O)N2CC(C(=O)Nc3cc(C(F)(F)F)ccc3Cl)C2)no1 : 38.4 µM
O=C1Cc2ccccc2C(=O)N1c1ccc2c(c1)OCO2 : 22.6 µM
Cc1ccc(Cn2c(=O)c3ccccc3n3c(CCC(=O)N4CCN(c5ccccn5)CC4)nnc23)cc1 : 11.8 µM
CC(C)(C)c1ccc(C(=O)Nc2ccc(Oc3cccnc3)nc2)cc1 : > 50 µM (inactive)
COc1cc(-c2cc(C(=O)Nc3cc(C)[nH]n3)c3ccccc3n2)cc(OC)c1OC : 42.9 µM
COc1ccc(OCCn2c(C3CC(=O)N(c4cccc(C)c4)C3)nc3ccccc32)cc1 (centres undefined) : 0.391 µM
COC(=O)[C@]1(O)O[C@@]2(C(=O)OC)c3c(oc4cc(C)cc(O)c4c3=O)[C@H]3c4c(oc5cc(C)cc(O)c5c4=O)C[C@H]1[C@H]32 : > 50 µM (inactive)
Cc1noc(NS(=O)(=O)c2ccc(NC(=O)CSc3ccc4ccccc4c3)cc2)c1C : > 50 µM (inactive)
COc1ccccc1CC(=O)Nc1nc2ccccc2[nH]1 : 33.3 µM
COc1cc(C(=O)Nc2ccc(-c3csc(C)n3)cc2)cc(OC)c1OC : > 50 µM (inactive)

Entry under review: O=C(Nc1ccncc1)c1ncoc1-c1cccc(Cl)c1 . Reported IC50?
> 50 µM (inactive)

Entry under review: COc1ccc(OC)c(NC(=O)CS(=O)(=O)c2cn(CC(=O)N3CCC(C)CC3)c3ccccc23)c1 . Reported IC50?
27.2 µM

====

- tgt: Ubiquitin carboxyl-terminal hydrolase 17-like protein 5 (Homo sapiens) (UniProt A8MUK1)
- method: ubiquitin-specific protease 17 DUB inhibitors, concentration-effect assay, cell-free, verification of initial screening actives (AID 1645864)
- measurement.conditions: purified USP17, ubiquitin-rhodamine cleavage fluorescence, 3 h
Active and inactive are the calls of the source.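 Rule for the calls: active = maximal inhibition of USP17 at or above 30% in the confirmation dose-response, a value not among the printed readouts; inactive = the rest.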
Consider the following molecules and their measured IC50 readings.

Cc1ccc(NC(=O)c2ccc3nn(CC(=O)Nc4ccc(F)cc4F)c(=O)n3c2)cc1 : 2.79 µM
Clc1cncc(Oc2nc(-c3cccnc3)nc3ccccc23)c1 : 3.31 µM
CC1CCCN(S(=O)(=O)c2cc3cc(F)ccc3oc2=O)C1 (configuration not stated) : 31.1 µM

Entry under review: Oc1sc(C=Nc2cc(Cl)ccc2Cl)c2ccccc12 . Reported IC50?
1.46 µM

Entry under review: O=c1ccc(-c2noc(-c3ccc4cc[nH]c4c3)n2)c[nH]1 . Reported IC50?
> 50 µM (inactive)

Entry under review: O=C(Cc1c[nH]c2ccccc12)Nc1nc2ccccc2s1 . Reported IC50?
> 50 µM (inactive)

Entry under review: Oc1cc(OCc2cccc(C(F)(F)F)c2)ccc1-c1ccn[nH]1 . Reported IC50?
21.2 µM

Entry under review: CC(=O)Nc1ccc(Cc2nc(-c3ccc4c(c3)nc(C)c(=O)n4C3CCCC3)no2)cc1 . Reported IC50?
> 50 µM (inactive)

Entry under review: COc1ccc2nc(-c3ccc(NC(=O)c4cccc(OC)c4OC)cc3)cn2n1 . Reported IC50?
2.13 µM

Entry under review: CCc1ccc(Nc2cc(C(=O)NCCCOC(C)C)c3ccccc3n2)cc1 . Reported IC50?
10.7 µM

====

- tgt: Ubiquitin carboxyl-terminal hydrolase 17-like protein 5 (Homo sapiens)
- method: ubiquitin-specific protease 17 DUB inhibitors, concentration-effect assay, cell-free, verification of initial screening actives (AID 1645864)
- measurement.conditions: purified USP17, ubiquitin-rhodamine cleavage fluorescence, 3 h
Calls of active or inactive are those of the source.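 How the source made its calls: active means maximal inhibition of USP17 at or above 30% in the confirmation dose-response, a value not among the printed readouts; inactive means the rest.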
Just give me one of these, please: active, inactive

CCc1ccc2[nH]c(=O)c(CN(CCc3ccc(OC)c(OC)c3)C(=O)Nc3ccccc3)cc2c1 : inactive
c1ccc(-c2nc(-c3nnn(-c4ccccc4)c3-c3ccncc3)no2)cc1 : active
CC(=O)Nc1cc(-c2cccc(O)c2)cn2c(-c3cnn(C)c3)cnc12 : active
COc1ccc(OC)c(C2CC(=O)Nc3n[nH]c(-c4ccccc4)c32)c1 (stereo not given) : active

Kindly provide the recorded test outcome for the following compound: COc1ccccc1CNC(=O)Nc1cccc2ccccc12
active

====

Consider the following compounds and their measured IC50 readings.
- tgt: Ubiquitin carboxyl-terminal hydrolase 17-like protein 5 (Homo sapiens) (UniProt A8MUK1)
- method: ubiquitin-specific protease 17 DUB inhibitors, concentration-effect assay, cell-free, verification of initial screening actives (AID 1645864)
- measurement.conditions: purified USP17, ubiquitin-rhodamine cleavage fluorescence, 3 h
Activity calls are given as the source filed them.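 Rule for the calls: active = maximal inhibition of USP17 at or above 30% in the confirmation dose-response, a value not among the printed readouts; inactive = the rest.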

O=S(=O)(c1cccc(F)c1)N1CCN(c2nnnn2-c2ccccc2)CC1 : 40.3 µM
COc1cccc(NC(=O)Nc2ccc(CCc3nc4ccccc4[nH]3)cc2)c1 : 49.2 µM
COc1ccc(C(=O)Nc2nc3n(n2)C(c2ccccc2)CC(=O)N3)cc1 (stereo not given) : 10.2 µM
CCOc1ccc2c(c1)c(=O)c(C(=O)c1ccccc1)cn2CC(=O)Nc1ccccc1 : 5.29 µM

Below: the item to evaluate.
Entry under review: COc1ccc(C(=O)Nc2cc(-c3ccccn3)no2)cn1 . Reported IC50?
> 50 µM (inactive)
